- measured-target: T1, EBV gp350 expressed on the surface of stably transfected CHO cells (Epstein-Barr virus, UniProt P03200 1-907)
- T1 construct: also called native gp350; gp350 expressing CHO cells
- T1 sequence: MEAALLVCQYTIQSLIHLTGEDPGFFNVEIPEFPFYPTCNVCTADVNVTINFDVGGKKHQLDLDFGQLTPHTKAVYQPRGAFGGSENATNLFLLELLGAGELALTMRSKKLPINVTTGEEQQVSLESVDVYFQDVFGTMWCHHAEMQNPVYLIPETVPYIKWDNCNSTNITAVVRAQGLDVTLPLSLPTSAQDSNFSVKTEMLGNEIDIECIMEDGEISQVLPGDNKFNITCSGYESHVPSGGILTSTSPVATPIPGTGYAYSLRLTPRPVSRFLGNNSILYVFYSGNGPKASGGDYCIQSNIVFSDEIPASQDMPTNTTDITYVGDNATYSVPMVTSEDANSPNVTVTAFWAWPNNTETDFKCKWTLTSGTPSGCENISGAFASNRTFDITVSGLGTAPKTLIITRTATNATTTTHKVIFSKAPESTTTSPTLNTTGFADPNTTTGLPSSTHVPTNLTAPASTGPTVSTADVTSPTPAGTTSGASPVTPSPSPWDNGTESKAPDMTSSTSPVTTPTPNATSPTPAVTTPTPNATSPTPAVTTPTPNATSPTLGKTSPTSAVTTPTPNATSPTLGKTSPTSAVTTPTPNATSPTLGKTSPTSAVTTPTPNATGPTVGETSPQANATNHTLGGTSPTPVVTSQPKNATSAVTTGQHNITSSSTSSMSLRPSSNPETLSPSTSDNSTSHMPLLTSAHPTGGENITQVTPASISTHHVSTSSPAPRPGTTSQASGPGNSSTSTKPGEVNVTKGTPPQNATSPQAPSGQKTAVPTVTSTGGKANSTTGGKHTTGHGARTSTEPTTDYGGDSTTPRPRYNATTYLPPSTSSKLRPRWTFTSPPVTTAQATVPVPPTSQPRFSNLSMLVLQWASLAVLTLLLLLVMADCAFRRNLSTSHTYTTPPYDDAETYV
- test-details: cell competition (flow), unlabeled 250 µg/ml; competitor: biotinylated m72A1 1 µg/ml
Classification field: enter Y for % inhibition of biotinylated nAbs values not below 90%, N for values below it.

# binder, category-label
rows = [
    ("murine 72A1 (m72A1), anti-EBV gp350 neutralizing antibody from hybridoma HB168 (antibody, V domains shown, also called nAb-72A1; mouse 72A1) VH: EVQLQQSGPELVKPGTSMKISCKASGSSFTDYTMNWMKQSHGKNLEWIGLINPYNGGTRYNQKFKGKATLTLDKSSSTAYMEVLSLTSEDSAVYYCAGGLRRVNWFAYWGQGTLVSVSA VL: QAVLTQESALTTSPGETVTLTCRSSTGAVTTSNYANWVQEKPDHLFTGLIGGTNNRVPGVPARFSGSLIGDKAALTITGAQTEDEAIYFCVLWHSNHWVFGGGTKLTVL", "Y"),
]

Does the binder HB11 (antibody, V domains shown) VH: PSLVKPSQTLSLTCSVTGDSITSGFWNWIRKFPGNKLEYMGYISYSGSTYYNPSLKSRISITRDTSKNQYYLQLNSVTTEDTATYYCARGNGGNYDWYFDVWGAGTTVTVSS VL: AIMSASLGEKVTMSCRASSSVNFMNWYQQKSDDSPKLLIYYISNLAPGVPARFSGSGSGNSYSLTISGMEGEDAATYYCQQFTSSPSWTFGGGTKLEIKR have recorded % inhibition of biotinylated nAbs that is 90% or more?
Y

Could you please find out whether HB17 (antibody, V domains shown) VH: AELVIPGASVKVSCKASGYTFTSYWIHWVKQWPGQGLEWIGEINPNNGHTNYNEKFKSKATLTVDKSSSTAYMQLSSLTSEDSAVYYCARNLFYYSRPDYWGQGTSVTVSS VL: SSLSASLGDRVTISCRASQDIGNYLNWYQQKPDGTIKLLIYYTSRLHSGVPSRFSGSGSGTDYSLTISNLEEEDIATYFCQQGNTLPPTFGGGTKLEIKR has % inhibition of biotinylated nAbs that meets 90% or exceeds it?
N

Confirm if % inhibition of biotinylated nAbs reported for the binder HB5 (antibody, V domains shown, also called mHB5) VH: AELVRPGASVKISCKAFGYTFTNHNINWVKQRPGQGLDWIGYINPYNDYTSYNQKFKGKATLTVDKSSNTAYMELSSLTSEDSAVYYCARSEGWLRRGAWFAYWGQGTLVTVSA VL: AILSVSPGERVSFSCRASQSIGTSIHWYQQRTNDSPRLLIKYASESISGIPPRFSGSGSGTDFTLSINSVESEDIADYHCQQSNSWPMLTFGAGTKLELKR is 90% or above.
Y
